# Assayed System: tubulin covalently linked to a biotinylated stathmin-like peptide
# Test Method Notes: ELISA
# Test Parameters: chain shown with the change; buffer incubation after binding; 10 nM biotinylated peptide-coupled tubulin for coating; parent: est. 0.32; read off a plot
Would you mind labelling by response? At or over 0.7 AU is rule met, under is rule not met.

DARPin D1 H118R; I122V (protein) MRGSHHHHHHGSDLGKKLLEAARAGQDDEVRILMANGADVNATDASGLTPLHLAATYGHLEIVEVLLKHGADVNAIDIMGSTPLHLAALIGHLEIVEVLLKHGADVNAVDTWGDTPLRLAAVMGHLEIVEVLLKHGADVNAQDKFGKTAFDISIDNGNEDLAEILQKLN
rule met
DARPin D1 I76S (protein) MRGSHHHHHHGSDLGKKLLEAARAGQDDEVRILMANGADVNATDASGLTPLHLAATYGHLEIVEVLLKHGADVNASDIMGSTPLHLAALIGHLEIVEVLLKHGADVNAVDTWGDTPLHLAAIMGHLEIVEVLLKHGADVNAQDKFGKTAFDISIDNGNEDLAEILQKLN
rule not met
DARPin D1 I32V; N74S; I76S; I78L; H118R; I122V; E127K; V131A; F150Y; I152T; N158S (protein) MRGSHHHHHHGSDLGKKLLEAARAGQDDEVRVLMANGADVNATDASGLTPLHLAATYGHLEIVEVLLKHGADVSASDLMGSTPLHLAALIGHLEIVEVLLKHGADVNAVDTWGDTPLRLAAVMGHLKIVEALLKHGADVNAQDKFGKTAYDTSIDNGSEDLAEILQKLN
rule met
DARPin D1 N74S (protein) MRGSHHHHHHGSDLGKKLLEAARAGQDDEVRILMANGADVNATDASGLTPLHLAATYGHLEIVEVLLKHGADVSAIDIMGSTPLHLAALIGHLEIVEVLLKHGADVNAVDTWGDTPLHLAAIMGHLEIVEVLLKHGADVNAQDKFGKTAFDISIDNGNEDLAEILQKLN
rule not met
DARPin D1 H118R (protein) MRGSHHHHHHGSDLGKKLLEAARAGQDDEVRILMANGADVNATDASGLTPLHLAATYGHLEIVEVLLKHGADVNAIDIMGSTPLHLAALIGHLEIVEVLLKHGADVNAVDTWGDTPLRLAAIMGHLEIVEVLLKHGADVNAQDKFGKTAFDISIDNGNEDLAEILQKLN
rule met
DARPin D1 I78L (protein) MRGSHHHHHHGSDLGKKLLEAARAGQDDEVRILMANGADVNATDASGLTPLHLAATYGHLEIVEVLLKHGADVNAIDLMGSTPLHLAALIGHLEIVEVLLKHGADVNAVDTWGDTPLHLAAIMGHLEIVEVLLKHGADVNAQDKFGKTAFDISIDNGNEDLAEILQKLN
rule not met

Would you say DARPin D1 I122V (protein) MRGSHHHHHHGSDLGKKLLEAARAGQDDEVRILMANGADVNATDASGLTPLHLAATYGHLEIVEVLLKHGADVNAIDIMGSTPLHLAALIGHLEIVEVLLKHGADVNAVDTWGDTPLHLAAVMGHLEIVEVLLKHGADVNAQDKFGKTAFDISIDNGNEDLAEILQKLN shows response at minimum 0.7 AU?
rule not met
